Tested on: CCRF-CEM
assay protocol: Cytotoxic activity against human CEM.CM3 cell line was measured after 72 hr using MTT assay
Type: functional
condition: Homo sapiens, CCRF-CEM, 72 h; read-out: ED50 (the source's name)
value kind: EC50 (µg/mL)
Kindly provide the numeric value in µg/mL only, without the unit symbol.

Example cases with answers are listed next.
compound="CC1(C)C(=O)C(Br)C[C@@]2(C)C1CC[C@]1(C)C2CCC2C3[C@H](C(C)(Br)CBr)CC[C@]3(C(=O)O)CC[C@]21C (stereo partly specified)" readout_number=2.8
compound="CC(C)[C@@H]1CC[C@]2(C(=O)O)CC[C@]3(C)C(CCC4[C@@]5(C)CC[C@H](O)C(C)(C)C5CC[C@]43C)C12 (stereo partly specified) [DIHYDROBETULINIC ACID]" readout_number=1.3
compound="C=C(C)[C@@H]1CC[C@]2(C(=O)O)CC[C@]3(C)C(CCC4[C@@]5(C)CC[C@H](OC(=O)CC)C(C)(C)C5CC[C@]43C)C12 (stereo partly specified)" readout_number=5.5

API: the following record is the query input.
Input: Please report the measured EC50 for C=C(C)[C@@H]1CC[C@]2(C(=O)CC(=O)OC)CC[C@]3(C)C(CCC4[C@@]5(C)CC[C@H](O)C(C)(C)C5CC[C@]43C)C12 (stereo partly specified)
Output: 6.4
